System: chimeric Caspase-9 polypeptide
Sequence (P62942 2-108 F37V limits assumed): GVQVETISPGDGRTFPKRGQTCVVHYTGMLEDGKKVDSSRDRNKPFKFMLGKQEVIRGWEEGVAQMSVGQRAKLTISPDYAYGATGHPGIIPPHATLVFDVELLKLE
test: Caspase-9 mutant classes and basal activity (Table 5)
Format: cell-based
experimental.context: Caspase-9 mutant class; basal (ligand-independent) signaling compared with unmodified chimeric Caspase-9
measurement.label: Basal Activity

Solved entries:
D327G (protein) GFGDVGALESLRGNADLAYILSMEPCGHCLIINNVNFCRESGLRTRTGSNIDCEKLRRRFSSLHFMVEVKGDLTAKKMVLALLELARQDHGALDCCVVVILSHGCQASHLQFPGAVYGTDGCPVSVEKIVNIFNGTSCPSLGGKPKLFFIQACGGEQKDHGFEVASTSPEDESPGSNPEPDATPFQEGLRTFGQLDAISSLPTPSDIFVSYSTFPGFVSWRDPKSGSWYVETLDDIFEQWAHSEDLQSLLLRVANAVSVKGIYKQMPGCFNFLRKKLFFKTSASRA    Increased
T317S (protein) GFGDVGALESLRGNADLAYILSMEPCGHCLIINNVNFCRESGLRTRTGSNIDCEKLRRRFSSLHFMVEVKGDLTAKKMVLALLELARQDHGALDCCVVVILSHGCQASHLQFPGAVYGTDGCPVSVEKIVNIFNGTSCPSLGGKPKLFFIQACGGEQKDHGFEVASTSPEDESPGSNPEPDASPFQEGLRTFDQLDAISSLPTPSDIFVSYSTFPGFVSWRDPKSGSWYVETLDDIFEQWAHSEDLQSLLLRVANAVSVKGIYKQMPGCFNFLRKKLFFKTSASRA    Decreased
L329E (protein) GFGDVGALESLRGNADLAYILSMEPCGHCLIINNVNFCRESGLRTRTGSNIDCEKLRRRFSSLHFMVEVKGDLTAKKMVLALLELARQDHGALDCCVVVILSHGCQASHLQFPGAVYGTDGCPVSVEKIVNIFNGTSCPSLGGKPKLFFIQACGGEQKDHGFEVASTSPEDESPGSNPEPDATPFQEGLRTFDQEDAISSLPTPSDIFVSYSTFPGFVSWRDPKSGSWYVETLDDIFEQWAHSEDLQSLLLRVANAVSVKGIYKQMPGCFNFLRKKLFFKTSASRA    Decreased
P318A (protein) GFGDVGALESLRGNADLAYILSMEPCGHCLIINNVNFCRESGLRTRTGSNIDCEKLRRRFSSLHFMVEVKGDLTAKKMVLALLELARQDHGALDCCVVVILSHGCQASHLQFPGAVYGTDGCPVSVEKIVNIFNGTSCPSLGGKPKLFFIQACGGEQKDHGFEVASTSPEDESPGSNPEPDATAFQEGLRTFDQLDAISSLPTPSDIFVSYSTFPGFVSWRDPKSGSWYVETLDDIFEQWAHSEDLQSLLLRVANAVSVKGIYKQMPGCFNFLRKKLFFKTSASRA    Similar
S196D (protein) GFGDVGALESLRGNADLAYILSMEPCGHCLIINNVNFCRESGLRTRTGSNIDCEKLRRRFSDLHFMVEVKGDLTAKKMVLALLELARQDHGALDCCVVVILSHGCQASHLQFPGAVYGTDGCPVSVEKIVNIFNGTSCPSLGGKPKLFFIQACGGEQKDHGFEVASTSPEDESPGSNPEPDATPFQEGLRTFDQLDAISSLPTPSDIFVSYSTFPGFVSWRDPKSGSWYVETLDDIFEQWAHSEDLQSLLLRVANAVSVKGIYKQMPGCFNFLRKKLFFKTSASRA    Decreased

Query: Need Basal Activity, item D330A-N405Q (protein) GFGDVGALESLRGNADLAYILSMEPCGHCLIINNVNFCRESGLRTRTGSNIDCEKLRRRFSSLHFMVEVKGDLTAKKMVLALLELARQDHGALDCCVVVILSHGCQASHLQFPGAVYGTDGCPVSVEKIVNIFNGTSCPSLGGKPKLFFIQACGGEQKDHGFEVASTSPEDESPGSNPEPDATPFQEGLRTFDQLAAISSLPTPSDIFVSYSTFPGFVSWRDPKSGSWYVETLDDIFEQWAHSEDLQSLLLRVANAVSVKGIYKQMPGCFQFLRKKLFFKTSASRA
Reply: Decreased

Query: Another molecule to look at: D330A-N405T (protein) GFGDVGALESLRGNADLAYILSMEPCGHCLIINNVNFCRESGLRTRTGSNIDCEKLRRRFSSLHFMVEVKGDLTAKKMVLALLELARQDHGALDCCVVVILSHGCQASHLQFPGAVYGTDGCPVSVEKIVNIFNGTSCPSLGGKPKLFFIQACGGEQKDHGFEVASTSPEDESPGSNPEPDATPFQEGLRTFDQLAAISSLPTPSDIFVSYSTFPGFVSWRDPKSGSWYVETLDDIFEQWAHSEDLQSLLLRVANAVSVKGIYKQMPGCFTFLRKKLFFKTSASRA
Reply: Increased

Query: Now the molecule F319A (protein) GFGDVGALESLRGNADLAYILSMEPCGHCLIINNVNFCRESGLRTRTGSNIDCEKLRRRFSSLHFMVEVKGDLTAKKMVLALLELARQDHGALDCCVVVILSHGCQASHLQFPGAVYGTDGCPVSVEKIVNIFNGTSCPSLGGKPKLFFIQACGGEQKDHGFEVASTSPEDESPGSNPEPDATPAQEGLRTFDQLDAISSLPTPSDIFVSYSTFPGFVSWRDPKSGSWYVETLDDIFEQWAHSEDLQSLLLRVANAVSVKGIYKQMPGCFNFLRKKLFFKTSASRA
Reply: Similar
